Some compounds, each annotated with its measured pIC50.
- System: M. tuberculosis H37Rv growth inhibition with meropenem
- test.details: dose response, H37Rv, with and without meropenem (AID 434987);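 further: growth over 7 days at 37 °C before Alamar Blue read on day 9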
- measurement.conditions: M. tuberculosis H37Rv growth inhibition; measured here: IC50 without meropenem
pIC50: −log10 of the molar value.
value.kind: pIC50

[[record]]
compound = "CCOC(=O)c1c(C)[nH]c(C)c1C(=O)COC(=O)c1ccc(S(=O)(=O)N(CC)CC)cc1"
target = "M. tuberculosis H37Rv growth inhibition with meropenem"
assay_result = "< 4.00"

[[record]]
compound = "COC(=O)c1ccc(/C=N/Nc2nc(-c3ccc(C)cc3)cs2)cc1"
target = "M. tuberculosis H37Rv growth inhibition with meropenem"
assay_result = "< 4.00"

[[record]]
compound = "CC1(C)CC(=O)c2cc(C(=O)NCc3ccco3)c(=O)n(-c3ccccc3)c2C1"
target = "M. tuberculosis H37Rv growth inhibition with meropenem"
assay_result = "< 4.00"

[[record]]
compound = "CCOC(=O)/C(=N\\Nc1ccccc1)c1csc(Nc2ccc(C)cc2)n1"
target = "M. tuberculosis H37Rv growth inhibition with meropenem"
assay_result = "< 4.00"

[[record]]
compound = "CCC1Nc2ncnc(N3CCN(c4ccccc4)CC3)c2N(Cc2ccc(Br)cc2)C1=O (stereo not given)"
target = "M. tuberculosis H37Rv growth inhibition with meropenem"
assay_result = "< 4.00"

[[record]]
compound = "CCOc1ccc(-c2nnc(SCC(=O)N3CCOCC3)o2)cc1"
target = "M. tuberculosis H37Rv growth inhibition with meropenem"
assay_result = "< 4.00"

[[record]]
compound = "Cc1cn([C@@H](CCCCNC(=O)OC(C)(C)C)C(=O)NCCCCCCCCCCC(=O)N2CCN(C(=O)OC(C)(C)C)CC2)nn1"
target = "M. tuberculosis H37Rv growth inhibition with meropenem"
assay_result = "< 4.00"

[[record]]
compound = "CCOc1ccc(-c2cnc3n2CCC3)cc1"
target = "M. tuberculosis H37Rv growth inhibition with meropenem"
assay_result = "< 4.00"

[[record]]
compound = "O=C(NCc1ccco1)c1cc2n(n1)C(C(F)(F)F)CC(c1ccc(F)cc1)N2 (stereo not given)"
target = "M. tuberculosis H37Rv growth inhibition with meropenem"
assay_result = "< 4.00"

[[record]]
compound = "CN(C)C(=O)c1ccc(-n2nc(C(F)(F)F)c3c2CCCC3)cc1"
target = "M. tuberculosis H37Rv growth inhibition with meropenem"
assay_result = "< 4.00"


----------
- System: M. tuberculosis H37Rv growth inhibition with meropenem
- test.details: dose response, H37Rv, with and without meropenem (AID 434987);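 further: growth over 7 days at 37 °C before Alamar Blue read on day 9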
- measurement.conditions: measured here: IC90 with meropenem
value.kind: IC90

[[record]]
compound = "Cc1ccc(/C=C2/SC(=S)N(CC(=O)Nc3ncc(Cc4ccc(C)cc4)s3)C2=O)cc1"
value_kind = "IC90"
assay_result = "> 100 µM"

[[record]]
compound = "COc1ccc2cc(C3=CCCCC3)ncc2c1"
value_kind = "IC90"
assay_result = "> 100 µM"

[[record]]
compound = "Cc1ccc(-c2nc3[nH]c(=O)cc(NC(=O)C(C)C)n3n2)cc1"
value_kind = "IC90"
assay_result = "> 12.5 µM"

[[record]]
compound = "Nc1c(C(=O)NC2CC2)c2nc3ccccc3nc2n1-c1ccc2c(c1)OCO2"
value_kind = "IC90"
assay_result = "> 100 µM"

[[record]]
compound = "O=C1N=C(N2CCCC2)S/C1=C\\c1cccc(Br)c1"
value_kind = "IC90"
assay_result = "> 100 µM"

[[record]]
compound = "CCC(C)Nc1c2c(nc3c(-c4ccccc4)c(C)nn13)CCC2 (stereo unspecified)"
value_kind = "IC90"
assay_result = "> 100 µM"

[[record]]
compound = "O=C(CSc1n[nH]c(=O)n1C1CC1)c1ccc2c(c1)OCCO2"
value_kind = "IC90"
assay_result = "> 100 µM"

[[record]]
compound = "COC(=O)c1c(NC(=O)c2ccc(C)cc2)csc1C"
value_kind = "IC90"
assay_result = "> 100 µM"

[[record]]
compound = "CCOc1cc(N2CCOCC2)c(OCC)cc1NC(=O)COc1cccc(CC)c1"
value_kind = "IC90"
assay_result = "> 100 µM"

[[record]]
compound = "Cc1cc(=S)nc(-c2ccccn2)[nH]1"
value_kind = "IC90"
assay_result = "19.7 µM"

[[record]]
compound = "Cc1ccc(SCc2c(-c3ccccc3)nn(C)c2Cl)cc1"
value_kind = "IC90"
assay_result = "> 100 µM"

[[record]]
compound = "CCC(C)NCCOCCOc1ccc(Cl)c2ccccc12 (stereo unspecified)"
value_kind = "IC90"
assay_result = "50.7 µM"

[[record]]
compound = "C=CCOc1ccc(C2N3CC4(C)CN2CC(CCC)(C3)C4=O)cc1 (stereo unspecified)"
value_kind = "IC90"
assay_result = "> 100 µM"

[[record]]
compound = "CCSc1nnc(NC(=O)C2Cc3ccccc3CN2C(=O)c2ccco2)s1 (stereo unspecified)"
value_kind = "IC90"
assay_result = "> 100 µM"

[[record]]
compound = "Cc1sc2nc(C(C)Nc3ccccc3N3CCOCC3)[nH]c(=O)c2c1C (stereo unspecified)"
value_kind = "IC90"
assay_result = "> 100 µM"

[[record]]
compound = "CC(C)Cn1c2c(c(O)c(C(=O)Nc3ccc(F)cc3)c1=O)CCCC2"
value_kind = "IC90"
assay_result = "> 100 µM"

[[record]]
compound = "CC(=O)NC(=S)Nc1ccc(NC(=O)c2cccnc2Cl)cc1"
value_kind = "IC90"
assay_result = "> 100 µM"

[[record]]
compound = "CCOC(OCC)c1cn(Cc2ccc3c(c2)C(=O)c2ccccc2C3=O)nn1"
value_kind = "IC90"
assay_result = "> 100 µM"

[[record]]
compound = "O=C1/C(=C/C=C/c2ccco2)SC(=S)N1c1ccc(O)cc1"
value_kind = "IC90"
assay_result = "> 100 µM"

[[record]]
compound = "COc1ccc2nc(SCC(=O)N3CCCCCC3)c(C#N)cc2c1"
value_kind = "IC90"
assay_result = "> 50 µM"

[[record]]
compound = "CC(C)(C)C1=Nn2c(nnc2-c2ccccc2F)SC1"
value_kind = "IC90"
assay_result = "78.3 µM"

